B1: KRT13 (parent)
chain: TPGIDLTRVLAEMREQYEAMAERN

Variants of: B1
protocolSummary: protein stability index of a GFP-peptide fusion (GPS, HEK-293T) (PSI 1-6); higher = more stable;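 further: lentivirally expressed fusions sorted by FACS into six bins by GFP to DsRed ratio, PSI derived from sequencing read proportions per bin multiplied by bin number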
testParameters: c terminus: a fixed tail appended
Assign 1 whenever protein stability index does not fall below 4; assign 0 whenever it does.

| var | labelClass |
| --- | --- |
| E15R | 0 |
| A11K | 1 |
| E18T | 0 |
| I4Y | 0 |
| R8A | 1 |
| G3R | 0 |
| A21L | 1 |
| E22D | 1 |
| N24Y | 0 |
| Q16K | 1 |
| E22W | 0 |
| R8I | 0 |
| M13V | 0 |
| V9R | 1 |
| E12Q | 1 |
| E18N | 0 |
| R8Y | 0 |
| T7R | 0 |
| M13C | 1 |
| G3T | 0 |
| R8L | 0 |
| P2C | 0 |
| G3N | 0 |
| E12C | 0 |
| M13A | 1 |
| P2Y | 0 |
| E18V | 1 |
